- runDescription: Pharmacokinetic parameters for Valsartan following oral or intravenous administration of Valsartan solution.
- Format: ADME, organism-based
- assaySetup: human, in vivo; dosed compound id 15, dosed compound name VALSARTAN, route iv, tissue Plasma

# smilesInput, clearance
rows = [
    ("CCCCC(=O)N(Cc1ccc(-c2ccccc2-c2nnn[nH]2)cc1)[C@H](C(=O)O)C(C)C", "33.3 mL/min"),
]

----------
- runDescription: Apparent clearance of Valsartan following oral administration of 40 to 160 mg Valsartan, twice a day, to heart failure patients.
- Type: ADME, organism-based
- assaySetup: human, in vivo, dose Range 40 to 160 mg, dosed compound id 15, dosed compound name VALSARTAN, regimen Every 12h, tissue Plasma, read-out: CL(app) (converted)

# smilesInput, CL/F
data = [
    ("CCCCC(=O)N(Cc1ccc(-c2ccccc2-c2nnn[nH]2)cc1)[C@H](C(=O)O)C(C)C", "75 mL/min"),
]
